Origin of the recorded values: patent US20230416329A1

molecular target: bovine trypsin (bovine, UniProt P00760 24-246); assay: trypsin (50 nM) BApNA hydrolysis, OD405; peptide at 0.0098 µM
Sequence (P00760 24-246): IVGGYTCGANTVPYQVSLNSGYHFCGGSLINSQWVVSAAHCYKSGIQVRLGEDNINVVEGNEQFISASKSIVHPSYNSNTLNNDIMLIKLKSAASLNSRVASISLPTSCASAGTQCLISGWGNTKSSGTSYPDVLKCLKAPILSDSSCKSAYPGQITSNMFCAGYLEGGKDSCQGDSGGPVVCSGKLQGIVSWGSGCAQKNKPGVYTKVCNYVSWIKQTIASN
Bridge positions count the residues as written; N and C are the ends. Ends that are not written are not given here.
// Residual trypsin activity (%) lookup, one value per entry
I'd appreciate it if you wrote the number followed by its unit.

Solved entries (count: 3):
CGRYTKSIPPICF (disulfide 1-12 (inferred), synthetic) [BT53]    106%
CGRQTKSIPPICF (disulfide 1-12 (inferred), synthetic) [BT54]    99.9%
CGRAAKSIPPICF (disulfide 1-12 (inferred), synthetic) [BT26]    99.5%

-- ask Which Residual trypsin activity (%) is listed for CGTATKSIPPICF (disulfide 1-12 (inferred), synthetic) [BT25] ?
-- reply 99.6%

-- ask Give its Residual trypsin activity (%) value. Item: CGRATKSIPPICF (disulfide 1-12 (inferred), synthetic) [BT9]
-- reply 94.3%

-- ask I am curious: what Residual trypsin activity (%) value has been reported for CGRSTKSIPPICF (disulfide 1-12 (inferred), synthetic) [BT47] ?
-- reply 108%
